assay: folding stability dG unfold from trypsin proteolysis; higher = more stable
assayReadout: folding stability dG unfold (kcal/mol)
# unit: kcal/mol | format: bare number

Check out these entries, answers already filled in.
SAGGMPVVKVTLRVELPETGETVDVTLYVDPSVPEEYLERLVRRVAEEVARLLRLPPPPVPPRPDELSAGGS [r16_191_TrMRF] : 3.29
SAGGSSPWLERALEEARELMKNDPPGKEVEAKVKVPYPTPDGQQQPMKFRIRMTYKNNKIKEIEITSAGGSA [r2_173_TrROS] : 0.91
SAGGSAGGSAEELAKKLAEELRKEHNLEVTVEEVELKEEEIPGLKFKPGQKLLVITVKKKDSAGGSAGGSAG [r3_229_TrROS_Hall] : 0.901
SAGGSAGGSAGGKKVKIKIEIPGMSKEEIEKLAKELEKKGIKVEKIEVKPLPKVEVFEKKSAGGSAGGSAGG [r7_906_TrROS_Hall] : -0.602
SKKTVTIELYVPNMTPEQLRALLEALGYKVKKEEFDEDRGVVRLTVELPEDGTTITITIVRPPLPPGEKPSA [r9_1090_TrROS_Hall] : 2.25

## Task folding stability dG unfold for SAGGSAGGSAGGPKFKFEDVMVQRNPEPERAYVPITYEDPGKERPIMIPIPPNQTLDEISAGGSAGGSAGGS [r10_304_TrROS] ?
## Result 0.0428

## Task Given SAGGSAGGSAMKVLVTVTLTSPDGTKTTLTEEADPAELKGVLEAALPWTVETVTVYPAEELLSAGGSAGGSA [r18_107_JUSTAS] , state its recorded folding stability dG unfold.
## Result 1.35

###

experiment: folding stability dG unfold from trypsin proteolysis; higher = more stable
assayReadout: folding stability dG unfold (kcal/mol)
Please respond with the number in kcal/mol and leave the unit unwritten.

Some sequences with known folding stability dG unfold results, for comparison:
SAGGSAGGSAGSTALVETREFEDGTVVERVEVTLPNGEVLERTVVLTRDEAGNVVEEEVESAGGSAGGSAGG [r11_709_JUSTAS] : 0.224
SAGGKKETVKVTLEIEVNGKKYKIELTKNKDGTVTIKITDKNGKKIEIEIPMSPEDVKKLLEELLKKLSAGG [r13_296_TrROS_Hall] : 2.17
SAGGSAGGSAGGEVIEIELPGKTKEEIEEAIKKLPENYKIEIKKDENGRIRVRIFRKEDLSAGGSAGGSAGG [r7_662_TrROS_Hall] : 1.6

## Task What does the data say about its folding stability dG unfold? Entry: SAGGMKKGQKVTITIEKNEDGTLRITVKVDGKEFVFEFPKDMSLEELLKKAEEAAKKLNLPVEIEPVSAGGS [r16_446_TrROS_Hall]
## Result 1.29

## Task Report folding stability dG unfold for SAGGSAGGSAGIKIEWEQMPGGYMQYKVTIPDPNGKPLKIDVHYKSPEDAEEKAKELLKSSAGGSAGGSAGG [r11_819_TrROS] please.
## Result 0.215

## Task Find the recorded folding stability dG unfold belonging to SAGGSAPREIPIMIRVPGYQIEIHKITVPPNGMVQIGLEWRNPGGDKPVTINIWLPLNEIKDFIKASAGGSA [r15_56_TrROS] and report it.
## Result 1.83

## Task Can you look up the measured folding stability dG unfold of SAGGSAGPLERKVIVRTAPYTSPEEGEAYAEETKLAIASKLPESEKVTVEVTWDPETNTVTATIVSSAGGSA [r15_981_JUSTAS] for me?
## Result -0.491

###

experiment: folding stability dG unfold from chymotrypsin proteolysis; higher = more stable
Rule: condition met for folding stability dG unfold not less than 2 kcal/mol, condition not met for anything less.

SAGGSAEVVEREEYFEEKLPNGEKVKVRRIVTEITPIPGLPGYRVEYTVTVEIGDEWETYPLEVAESAGGSA [r15_465_JUSTAS] : condition not met
SAGGSAGGSKPGKPREIMIPFPDNWFMSIRVWPGRIEIENPDNGKEFEIPIGAPIEIELFPLDSAGGSAGGS [r12_227_TrROS] : condition not met
SAGGSPKPVPVTITSVTSTSVEVYLPSTGATFTFNLNEEKTLTLPDGSKIYFTFNSDGSVTATVIEYGSAGG [r13_352_TrMRF] : condition met
SAGSIPEEIAKELGLPDLKVLKVETKPLPNGPLNIKIIELELPGGFKIKVTVVEEPEKIIIKTEPVPLSAGG [r19_392_JUSTAS] : condition not met
SAGGDPGWVRVTAEIELDGKNLKIEWWYMPNGNYYYNIEFPNGKEIEIMIPMEPGDVEEFAEYIAKKLSAGG [r13_296_TrROS] : condition met

## Task Quick check, folding stability dG unfold >= 2 kcal/mol? SAGGSAGGSAGGGYIEIDSVHLHPDGTVTRTRAVLEVDENGNVRVLSAETETVPLDDILGSAGGSAGGSAGG [r7_521_TrMRF]
## Result condition met

## Task I'd appreciate it if you could say whether SAGGSAGGSAIMINIDLEYDPGDGTIELEYKISFMDPGGKPMGMITIRLEIRIPPPEPDPDDKSAGGSAGGS [r12_254_TrROS] has folding stability dG unfold at least equal to 2 kcal/mol.
## Result condition met

###

test: folding stability dG unfold from trypsin proteolysis; higher = more stable
assayReadout: folding stability dG unfold (kcal/mol)
Hi! Could you send only the number? It should be in kcal/mol, unit omitted.

SAGGSKEKFLTIEHPDYVIKAYVDYPKEGKLRVRIEIYDKNGKLLKTIEVEAYSPEEVLEFLEKAASAGGSA [r2_82_TrMRF] : 2.48

## Task Query (sequence): SAGGSVFESEKDLRVEVYKIKVGTTLGKEKNGKPKKPKFKEKEVLVVKVEVPLEDGTTLSAEFTFGSAGGSA [r2_218_TrMRF] ; field requested: folding stability dG unfold
## Result 1.25

## Task Requested read-out: folding stability dG unfold. Entry: SAGGKKVEITIEASPEEAEELAKKLEELFPDVKVEVVEVKPEEPVRVTVRVEVKVELSPEELKKLLESAGGS [r16_180_TrROS_Hall]
## Result 1.45

## Task Entry under review: SAGGRAVLLATFTTPDGSLVLVYEDPATGRVLVVSFDPSTGRVSVLRLRRVPNTGDLFIEDRATFPLSSAGG [r19_249_TrMRF] . Reported folding stability dG unfold?
## Result 3.51

## Task What folding stability dG unfold value was documented for this sequence, SAGGGSSSSSLTFTYDPATGKVLGSESFTIPSPSGEPRTNVLTLVEKNPSGTLKTTVLTRPVPPTLSSAGGS [r16_595_JUSTAS] ?
## Result 1.55

## Task Which folding stability dG unfold is reported for this sequence? SAGGSMEEEFAARGATVTIDPEKGVITVTFYEEVTQPDGTPVLRRKGTLTIEVPGNDPSQALAKALEESAGG [r13_924_JUSTAS]
## Result 1.41

## Task Which folding stability dG unfold is listed for SAGGSGMTTTFSKEVSSKEEAEKIFKRGFPDLNAKVTKFDPKKGTVEIELTFPDGKKSKATAPIKKSAGGSA [r2_201_JUSTAS] ?
## Result -0.569

###

assay: folding stability dG unfold from chymotrypsin proteolysis; higher = more stable
assayReadout: folding stability dG unfold
Don't forget the unit after the number, please.

Example results:
SAGGSAGGSMRIKTIKVIPQDDGMYSINITFPGVEREIPIPPQMPPDQITEIEIPIYFDGEPPSAGGSAGGS [r12_673_TrROS] : 0.436 kcal/mol
SAGGSAGGSASSMVKPEKLPNGEKVVVTTETVPDPNSDTPVTVVTTEIYKGDKIVEVKTTLVSAGGSAGGSA [r18_185_JUSTAS] : 0.384 kcal/mol
SETVEIEIELPDGTKVTITVDKDGKVHITIEVPEDNPELLEKGSIEELAKKLAEELGLSEKDVEVTVLPPSA [r9_401_TrROS_Hall] : 2.45 kcal/mol

Now, please, on to the next sequence.
## Task I'd like to know its folding stability dG unfold. The sequence in question is SAGGSAGGEEIAKKLRDLAKKLGLDVEIKKIEVTKYPLPEGDENKEEKWVTTITITVNGKKITLSAGGSAGG [r6_686_TrROS_Hall]
## Result 2.53 kcal/mol

###

test: folding stability dG unfold from chymotrypsin proteolysis; higher = more stable
folding stability dG unfold listing for selected sequences.
# output: numeric value plus its unit

Consider the following illustrative entries.
SAGGSAGGSAGDDGDKKPEVKVKVKIEPTIIPSPNGELMLMWTLEIEYPGNGEKREFTFMSAGGSAGGSAGG [r17_59_TrROS] : 1.92 kcal/mol
SAGGSAGGSAGFNIRIVNVEITGNKLTIYLPNGWVITIKFNKNGNINMKIEDIKPLPPGASAGGSAGGSAGG [r17_173_TrROS] : 3.98 kcal/mol
SAGGPLTLTIPLPDGTTITVTLTRNPDTPSYTATADITFPDGSVVRIHATINSDGSITIHSVEVFPASAGGS [r16_213_TrMRF] : 5.06 kcal/mol

## Task Form field: reported folding stability dG unfold of SAGGSIELPLEEGSTAEVELELRVPFYRLDANGRPVAPEERTLRIRARFTRLPDGRVLVEVEVEVESAGGSA [r2_154_TrMRF]
## Result 5.24 kcal/mol

Each recorded value in this set is attributed to the supplement of paper PMC12764529.
